These measurements were taken from PubChem BioAssay.

For each of the molecules below, state its composite z-score.
- measured target: Torsin-1A-interacting protein 1 (Homo sapiens)
- experiment: LAP1 binders from COS7 cell lysate, primary screen, small-molecule microarray, 635/667 nm fluorescence (AID 1116)
- run parameters: COS7-hLAP1 lysate binding, 635 nm fluorescence, higher = more signal
// keep it numeric: no unit symbol after the value

// composite z-score lookup, key: O=C1O[C@H](c2ccccc2)[C@H](c2ccccc2)N2[C@H]1[C@@H](C(=O)Nc1nc3ccccc3s1)[C@]1(C(=O)Nc3ccccc31)[C@H]2c1ccc(OCCO)cc1
0.442

Try the molecule O=c1n(-c2ccccc2)c(=O)n2n1CC(COc1ccccc1)=C([C@H](O)CCc1ccccc1)[C@@H]2CO
0.0355

Try the molecule O=C1OCC=C[C@H]2OC34C=CCN(c5ccc(Cl)cc5)C(=O)[C@H]3N(CCO)C(=O)[C@@H]4[C@@H]12 (some centres undefined)
0.0143

Try the molecule COc1ccc(CCNC(=O)[C@@]2(Sc3ccc(C)cc3)CC(=O)N(C3Cc4ccccc4C3)[C@@H]2c2ccc(CO)cc2)cc1
2.01

====

- experiment: inhibitors of hydroxyurea-induced Chk1 phosphorylation, primary screen, imaging, HeLa, phospho-Chk1 antibody, percent positive cells (AID 1186)
- run parameters: hydroxyurea-induced phospho-Chk1 immunofluorescence imaging, higher = more signal
For each of the compounds below, state its z-score.
// keep it numeric: no unit symbol after the value

// z-score lookup, key: COCCOC(=O)N1C(=O)[C@@]2(c3cc(C#CC4=CCCCC4)ccc31)[C@H](C(=O)N1CCCCCCC1)[C@H]1C(=O)O[C@H](c3ccccc3)[C@H](c3ccccc3)N1[C@@H]2c1ccc(O)cc1
-0.525

Try the compound COC(=O)C1=CC(CCCO)=CC(C2CC2)N(C)C=C1C(=O)OC (configuration not stated)
-0.68

Try the compound C=CCOC(=O)[C@H]1[C@@H]2C(=O)O[C@@H](c3ccccc3)[C@@H](c3ccccc3)N2[C@@H](c2ccc(OCCOC(=O)[C@@H]3C[C@@H]4C(=O)N[C@@H](CCCCNC(C)=O)C(=O)N4[C@@H]3c3ccc(O)cc3)cc2)[C@]12C(=O)Nc1ccc(I)cc12
-0.235

Try the compound COC(=O)c1c(CC[C@@H](CO)NC(=O)N[C@H](Cn2cc(C3(O)CCCCC3)nn2)C(C)C)oc(C(C)=O)c1C(=O)OC
0.303

Try the compound COC(=O)[C@@]1(Cc2ccc(OC)cc2)[C@H]2c3cc(C(=O)N4CCCC4)n(Cc4cccc5ccccc45)c3C[C@H]2CN1C(=O)c1ccccc1
-0.491

Try the compound COCCOC(=O)N1C(=O)[C@@]2(c3cc(C#CC4=CCCCC4)ccc31)[C@H](c1ccc(OCCO)cc1)N1[C@H](c3ccccc3)[C@H](c3ccccc3)OC(=O)[C@H]1[C@@H]2C(=O)NC[C@H](O)c1ccccc1
0.107

Try the compound COCCOC(=O)N1C(=O)[C@@]2(c3cc(C#CCNC(N)=O)ccc31)[C@H](C(=O)N1CCc3cc(OC)c(OC)cc3C1)[C@H]1C(=O)O[C@H](c3ccccc3)[C@H](c3ccccc3)N1[C@@H]2c1ccccc1OCCO
0.0782

Try the compound C=CCC(OC(C)=O)[C@@H]1[C@@H](N(Cc2ccc(-c3cccc(C(F)(F)F)c3)o2)C(=O)c2ccc(C)cc2)c2cc(OCCCO)ccc2N1C(=O)c1ccc2ccccc2c1 (some centres not stated)
-0.793

Try the compound COCCCNC(=O)[C@@]1(Cc2ccccc2N=[N+]=[N-])N=C(c2ccc(OCCCO)cc2)O[C@H]1c1ccccc1
0.0251

Try the compound COCCOC(=O)N1C(=O)[C@@]2(c3cc(C#CC4=CCCCC4)ccc31)[C@H](c1ccccc1OCCO)N1[C@H](c3ccccc3)[C@H](c3ccccc3)OC(=O)[C@H]1[C@@H]2C(=O)Nc1nc2ccccc2s1
0.325

Try the compound [N-]=[N+]=Nc1ccccc1C[C@]1(C(=O)N2CCOCC2)N=C(c2ccc(OCCCO)cc2)O[C@H]1c1ccccc1
-0.47

Try the compound CCCCCCc1nc(C2CC2)cc2c1[Si](C(C)C)(C(C)C)OC2
-0.186

====

- experiment: fission yeast growth modulation, primary screen, strain 972, OD600, 24 h, no modulator (AID 1090);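 also: basal condition with compound alone and no growth modifier present; test concentration not given here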
- run parameters: S. pombe 972 growth, called active from +8 up or from −8 down
The source made the active and inactive calls.
Response enum: 1 for active, 0 for inactive

Test call, this molecule: COc1ccc([Si](C)(C)[C@@H]2[C@@H](CC(=O)N(CCO)Cc3ccccc3)O[C@]3(C(=O)N(Cc4cccc(N5C(=O)c6cccc7cccc5c67)c4)c4ccccc43)[C@H]2C)cc1
0

Try the molecule COC(=O)C(CC#Cc1ccc2c(c1)[C@]1(C(=O)N2)[C@H](c2ccccc2OCCO)N2[C@H](c3ccccc3)[C@H](c3ccccc3)OC(=O)[C@H]2[C@@H]1C(=O)NC[C@H](O)c1ccccc1)C(=O)OC
0

Try the molecule C=C(COC)C(=O)CC[C@@H](OC(=O)c1cccnc1)c1ccc(OCCO)cc1
1

Try the molecule CN1C(=O)C2C=CC(C(O)c3ccc(F)cc3)N(Nc3ccccc3)C2C1=O (configuration not stated)
0

Try the molecule C[C@@H]1NC(=O)[C@@]23C(=O)N[C@@H](Cc4ccccc4)C2[C@H](C)[C@@]2(C)O[C@H]2C3/C=C/C/C=C\CNC(=O)[C@@H]2CCCN2C1=O (some centres not stated)
0

Try the molecule C=C(/C(=C/C[C@@H](OC(C)=O)c1cccc(OCCO)c1)c1cc(C(=O)OC)ccc1OC)C(C)C
0

Try the molecule Cc1ccc(S[C@]2(C(=O)NCC(F)(F)F)CC(=O)N(Cc3ccccc3)[C@@H]2c2ccc(CO)cc2I)cc1
0

====

- experiment: modulators of HCV replicon luciferase signal, primary screen, HCV replication inhibitor project, Huh7 cells, luciferase reporter (AID 1109);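 also: huh7 hepatoma cells harbouring a luciferase neomycin HCV replicon reporter; luciferase luminescence as measure of HCV replicon replication; test concentration not given here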
- run parameters: 48 h, higher = more signal
parameter measured: z-score
// keep it numeric: no unit symbol after the value

// z-score lookup, key: CC1=C([C@H](O)CCc2ccccc2)[C@H](CO)[C@@H]2C(=O)N(C)C(=O)[C@@H]2C1
-0.581

Try the molecule CC(C)Cc1ccc(CN2CC[C@@H](NC(=O)Nc3ccccc3)C2)cc1
-4.9

Try the molecule O=C(CS)NCCCCCNC(=O)[C@@H]1C[C@@H]2C(=O)N3CCC[C@H]3C(=O)N2[C@@H]1c1cccc(OCCO)c1
-0.367

Try the molecule CCCC[C@@H]1C[C@H]1[C@@H](NC(=O)Cc1ccccc1)c1ccc(-c2ccccc2)cc1
-0.783

Try the molecule COC(=O)CCCCCCC(=O)Nc1ccc(NC(=O)CCCC[P+](c2ccccc2)(c2ccccc2)c2ccccc2)cc1
0.319

Try the molecule COCCCNC(=O)[C@]1(CCS(=O)(=O)c2ccccc2)N=C(c2ccc(OCCCO)cc2)O[C@@H]1c1ccccc1CN=[N+]=[N-]
-1.47

Try the molecule CC=CC(O)C1C=CC2C(=O)N(c3ccccc3)C(=O)C2N1Nc1ccccc1F (stereo not drawn)
-0.536

Try the molecule COc1ccc([Si](C)(C)[C@H]2[C@H](CCO)O[C@@]3(C(=O)N(Cc4cccc(N5C(=O)COc6ccccc65)c4)c4ccccc43)[C@@H]2C)cc1
-4.98

====

- experiment: small-molecule microarray binders of probe aEGFR, primary screen, biochemical, biotinylated probe, 635/667 nm fluorescence (AID 1097);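 also: probe is a biotinylated anti-EGFR antibody binding compounds printed on slides; score combines fluorescence near 667 nm and signal to noise of each spot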
- run parameters: higher = more signal
For each of the compounds below, state its composite z-score.
// keep it numeric: no unit symbol after the value

// composite z-score lookup, key: CC[C@H]1C2=C3C(CC[C@H]4C(OCc5ccc(F)cc5C(F)(F)F)OC[C@](C)([C@@H]34)N(C(=O)OC(C)(C)C)C2)C(COC)C1COC (stereo partly specified)
-0.113

Try the compound COc1ccc(C#Cc2ccc3c(c2)[C@]2(C(=O)N3)[C@H](c3ccc(O)cc3)N3[C@H](c4ccccc4)[C@H](c4ccccc4)OC(=O)[C@H]3[C@@H]2C(=O)O)cc1
-0.0507

Try the compound O=C1OCCC=C[C@H]2OC34C=CCN(Cn5nnc6ccccc65)C(=O)[C@H]3N(CCCCCCO)C(=O)[C@@H]4C12 (stereo partly specified)
-0.354

Try the compound O=C(NCCCCCNC(=O)/C(Cc1ccccc1)=N/O)OCc1ccccc1
-0.127

Try the compound COCCCNC(=O)[C@@]1(Sc2ccc(C)cc2)CC(=O)N(C2CCCCC2)[C@@H]1c1ccc(CO)cc1
-0.221

Try the compound COc1ccc(CCN2C(=O)[C@@]3(Cc4ccccc42)c2ccccc2C(=O)N(Cc2ccccc2OC)[C@H]3c2ccc(CO)cc2)cc1
-0.204

Try the compound O=C1c2ccccc2[C@](Cc2ccccc2I)(C(=O)NCC(F)(F)F)[C@H](c2ccc(CO)cc2)N1C1CCCCC1
-0.0315

Try the compound COC(=O)C1=CC(CCCO)=CC(C2CC2)N(C)C=C1C(=O)OC (stereo unspecified)
-0.43

Try the compound O=C1NC(=O)C2C1C=CC(C(O)c1ccco1)N2Nc1ccccn1 (stereo unspecified)
-0.0259

Try the compound CC(C)[Si](C#CCCCC#N)(O[C@H](c1ccccc1)c1cn([C@H](CO)Cc2ccccc2)nn1)C(C)C
-0.0843

Try the compound C[C@@H]1NC(=O)[C@@]23C(=O)N[C@@H](Cc4ccccc4)C2[C@H](C)[C@@]2(C)O[C@H]2C3/C=C/C/C=C\CNC(=O)[C@@H]2CCCN2C1=O (stereo partly specified)
-0.266

Try the compound COC(=O)c1c(CC[C@@H](CO)NC(=O)N[C@H](Cn2cc(C3(O)CCCCC3)nn2)C(C)C)oc(C(C)=O)c1C(=O)OC
0.0274

Try the compound CCCCO[C@H]1C[C@H]2C(I)=C[C@@H]1C(=O)[C@]21CO1
-0.19

Try the compound N#Cc1ccc(C(O)C2C=CC3C(=O)N(c4ccccc4)C(=O)C3N2Nc2ccccc2)cc1 (stereo unspecified)
0.104

Try the compound C=C(C)C1CCC(C(O)C2C=CC3C(=O)N(C)C(=O)C3N2N2CCCCC2)CC1 (stereo unspecified)
0.368

Try the compound COc1ccc([Si](C)(C)[C@@H]2[C@@H](CC(=O)N3Cc4ccccc4C[C@H]3CO)O[C@]3(C(=O)N(Cc4cccc(N5C(=O)c6cccc7cccc5c67)c4)c4ccccc43)[C@H]2C)cc1
0.0276
